Please provide measured inhibition for the entries that follow.
# target-desc: Amyloid-beta precursor protein (Homo sapiens)
# test-name: Inhibition of HFIP-pretreated amyloid beta (1 to 42) (unknown origin) aggregation at 10 uM after 36 to 48 hrs by thioflavin-T fluorescence assay relative to control
# experimental-parameters: time 36-48 hrs
Numbers only, in %.

The examples below pair each entry with its known result.
- O[C@@H](CNCc1ccccc1)[C@H](Cc1ccccc1)NCCC(c1ccccc1)c1ccccc1: 34.7
- CC(C)c1cccc(CNC[C@@H](O)[C@H](Cc2ccccc2)NC(=O)C(c2ccccc2)c2ccccc2)c1: 20.5
- COc1cccc(CNC[C@@H](O)[C@H](Cc2ccccc2)NCCC(c2ccccc2)c2ccccc2)c1: 34.7
- CC(C)(NC[C@@H](O)[C@H](Cc1ccccc1)NC(=O)CC(c1ccccc1)c1ccccc1)c1ccccc1: 20.5
- CC(C)c1cccc(CNC[C@@H](O)[C@H](Cc2ccccc2)NC(=O)CC(c2ccccc2)c2ccccc2)c1: 20.5
- O=C(CC(c1ccccc1)c1ccccc1)N[C@@H](Cc1ccccc1)[C@H](O)CNCc1ccccc1: 20.5

Give me inhibition for each of these molecules, listed below.
1. COc1ccccc1CNC[C@H](O)[C@H](Cc1ccccc1)NCC(c1ccccc1)c1ccccc1
2. O=C(CC(c1ccccc1)c1ccccc1)N[C@@H](Cc1ccccc1)[C@H](O)CNCC1CC1
3. CC(C)(C)CNC[C@@H](O)[C@H](Cc1ccccc1)NC(=O)C(c1ccccc1)c1ccccc1
4. O[C@H](CNCc1ccccc1)[C@H](Cc1ccccc1)NCCC(c1ccccc1)c1ccccc1
5. C[C@H](NC[C@@H](O)[C@H](Cc1ccccc1)NC(=O)CC(c1ccccc1)c1ccccc1)c1ccccc1

Outgoing:
81.4
20.5
20.5
34.7
20.5

---

# target-desc: Cholinesterase (Equus caballus, UniProt P81908)
# Sequence (P81908 whole entry): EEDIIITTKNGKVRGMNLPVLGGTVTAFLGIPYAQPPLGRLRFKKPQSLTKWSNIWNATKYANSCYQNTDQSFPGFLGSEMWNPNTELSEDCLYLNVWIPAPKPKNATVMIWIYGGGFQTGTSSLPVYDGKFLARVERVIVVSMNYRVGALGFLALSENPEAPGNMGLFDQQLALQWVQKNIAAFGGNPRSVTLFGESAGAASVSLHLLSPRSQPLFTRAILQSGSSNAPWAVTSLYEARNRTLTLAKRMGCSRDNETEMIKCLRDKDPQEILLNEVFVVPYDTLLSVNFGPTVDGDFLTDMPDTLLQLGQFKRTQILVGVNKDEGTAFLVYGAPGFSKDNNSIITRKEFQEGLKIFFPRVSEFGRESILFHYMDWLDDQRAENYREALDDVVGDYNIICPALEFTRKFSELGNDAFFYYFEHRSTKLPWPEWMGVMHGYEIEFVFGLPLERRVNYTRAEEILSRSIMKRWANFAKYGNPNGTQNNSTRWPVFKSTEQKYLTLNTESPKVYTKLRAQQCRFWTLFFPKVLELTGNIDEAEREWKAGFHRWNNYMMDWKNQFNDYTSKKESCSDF
observation-type: IC50 (nM)
One number for each entry, in nM.

The examples below pair each entry with its known result.
• CC(C)(C)c1ccc(CNCC(O)[C@H](Cc2ccccc2)NC(=O)CC(c2ccccc2)c2ccccc2)cc1 (single isomer, unassigned) = 170
• O=C(N[C@@H](Cc1ccccc1)[C@@H](O)CNCc1ccccc1)C(c1ccccc1)c1ccccc1 = 230
• CC(C)c1cccc(CNC[C@@H](O)[C@H](Cc2ccccc2)NC(=O)CC(c2ccccc2)c2ccccc2)c1 = 650

Now let's try a different one.
Incoming: Quick one: IC50 for "COc1ccccc1CNC[C@H](O)[C@H](Cc1ccccc1)NCC(c1ccccc1)c1ccccc1" ?
Outgoing: 320

---

Please provide measured inhibition for the entries that follow.
# target-desc: Acetylcholinesterase (Electrophorus electricus)
# test-name: Inhibition of electric eel AChE at 10 uM using acetylthiocholine as substrate preincubated for 5 mins followed by substrate addition and measured after 5 mins by Ellman's method relative to control
# experimental-parameters: time 10.0 min

The examples below pair each entry with its known result.
- C[C@H](NC[C@@H](O)[C@H](Cc1ccccc1)NCCC(c1ccccc1)c1ccccc1)c1ccccc1: < 10%
- COc1ccccc1CNC[C@H](O)[C@H](Cc1ccccc1)NCCC(c1ccccc1)c1ccccc1: < 10%
- CC(C)c1cccc(CNC[C@H](O)[C@H](Cc2ccccc2)NC(=O)C(c2ccccc2)c2ccccc2)c1: < 10%
- CC(C)c1cccc(CNC[C@@H](O)[C@H](Cc2ccccc2)NCCC(c2ccccc2)c2ccccc2)c1: 25.9%
- CC(C)(C)CNC[C@@H](O)[C@H](Cc1ccccc1)NC(=O)C(c1ccccc1)c1ccccc1: < 10%

Give me inhibition for each of these compounds, listed below.
1. CC(C)(C)CNC[C@@H](O)[C@H](Cc1ccccc1)NCC(c1ccccc1)c1ccccc1
2. COc1cccc(CNC[C@@H](O)[C@H](Cc2ccccc2)NC(=O)C(c2ccccc2)c2ccccc2)c1
3. COc1cccc(CNC[C@@H](O)[C@H](Cc2ccccc2)NCCC(c2ccccc2)c2ccccc2)c1

Outgoing:
["< 10%", "< 10%", "< 10%"]

Give me inhibition for each of these compounds, listed below.
1. CC(C)(NC[C@@H](O)[C@H](Cc1ccccc1)NC(=O)C(c1ccccc1)c1ccccc1)c1ccccc1
2. CC(C)(C)c1cccc(CNC[C@@H](O)[C@H](Cc2ccccc2)NC(=O)CC(c2ccccc2)c2ccccc2)c1

Outgoing:
["< 10%", "< 10%"]

---

# target-desc: Beta-secretase 1 (Homo sapiens, UniProt P56817)
# Sequence (P56817 whole entry): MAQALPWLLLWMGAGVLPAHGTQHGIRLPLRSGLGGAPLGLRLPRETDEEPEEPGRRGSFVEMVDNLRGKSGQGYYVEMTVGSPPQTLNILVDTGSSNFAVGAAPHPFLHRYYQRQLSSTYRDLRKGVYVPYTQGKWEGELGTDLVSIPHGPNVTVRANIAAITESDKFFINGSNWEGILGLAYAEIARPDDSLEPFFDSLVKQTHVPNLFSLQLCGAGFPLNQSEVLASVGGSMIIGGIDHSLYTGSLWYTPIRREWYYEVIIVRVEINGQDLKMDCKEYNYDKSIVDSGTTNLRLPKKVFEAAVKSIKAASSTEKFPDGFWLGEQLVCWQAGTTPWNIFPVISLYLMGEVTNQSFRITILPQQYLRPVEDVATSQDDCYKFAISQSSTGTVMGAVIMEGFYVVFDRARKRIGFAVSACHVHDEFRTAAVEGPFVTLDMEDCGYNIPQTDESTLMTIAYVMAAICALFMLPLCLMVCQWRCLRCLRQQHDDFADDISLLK
# experimental-parameters: dose 50.0 µM, time 60.0 min
observation-type: inhibition (%)
Give bare numbers, in %.

The examples below pair each entry with its known result.
* COc1cccc(CNC[C@@H](O)[C@H](Cc2ccccc2)NC(=O)CC(c2ccccc2)c2ccccc2)c1 | 49
* O=C(CC(c1ccccc1)c1ccccc1)N[C@@H](Cc1ccccc1)[C@H](O)CNCC(F)(F)F | 24.4
* O=C(N[C@@H](Cc1ccccc1)[C@H](O)CNCC1CC1)C(c1ccccc1)c1ccccc1 | 44.4
* C[C@H](NC[C@@H](O)[C@H](Cc1ccccc1)NC(=O)CC(c1ccccc1)c1ccccc1)c1ccccc1 | 74.1

Give me inhibition for each of these compounds, listed below.
1. C[C@H](NC[C@@H](O)[C@H](Cc1ccccc1)NCCC(c1ccccc1)c1ccccc1)c1ccccc1
2. CC(C)(NC[C@@H](O)[C@H](Cc1ccccc1)NC(=O)C(c1ccccc1)c1ccccc1)c1ccccc1

Outgoing:
1. 62
2. 76.1

---

Please provide measured inhibition for the entries that follow.
# target-desc: Sodium- and chloride-dependent GABA transporter 1 (Mus musculus) (UniProt P31648)
# test-name: Inhibition of mouse GAT1 expressed in HEK293 cell line assessed as reduction in [3H]GABA uptake at 100 uM incubated for 10 mins relative to control
# Type: cell-based
One number for each entry, in %.

Give me inhibition for each of these molecules, listed below.
1. O=C(CC(c1ccccc1)c1ccccc1)N[C@@H](Cc1ccccc1)[C@@H](O)CNCc1ccccc1
2. C[C@H](NC[C@@H](O)[C@H](Cc1ccccc1)NC(=O)CC(c1ccccc1)c1ccccc1)c1ccccc1

Outgoing:
61
59

Give me inhibition for each of these molecules, listed below.
1. O=C(N[C@@H](Cc1ccccc1)[C@H](O)CNCC1CC1)C(c1ccccc1)c1ccccc1
2. O=C(N[C@@H](Cc1ccccc1)[C@H](O)CNCC(F)(F)F)C(c1ccccc1)c1ccccc1

Outgoing:
51
92

---

# target-desc: Cholinesterase (Equus caballus, UniProt P81908)
observation-type: pIC50
Answers are plain numbers, as −log10 of the molar value.

* COc1ccccc1CNC[C@H](O)[C@H](Cc1ccccc1)NC(=O)CC(c1ccccc1)c1ccccc1 | 6.48
* CC(C)(C)c1cccc(CNCC(O)CNCCC(c2ccccc2)c2ccccc2)c1 (configuration not stated) | 5.53
* CC(C)(C)c1cccc(CNC[C@@H](O)[C@H](Cc2ccccc2)NC(=O)C(c2ccccc2)c2ccccc2)c1 | 7.22
* CC(C)(C)c1cccc(CNC[C@@H](O)[C@H](Cc2ccccc2)NC(=O)CC(c2ccccc2)c2ccccc2)c1 | 6.35
* COc1ccccc1CNC[C@H](O)[C@H](Cc1ccccc1)NC(=O)C(c1ccccc1)c1ccccc1 | 6.96
* C[C@H](NC[C@@H](O)[C@H](Cc1ccccc1)NC(=O)C(c1ccccc1)c1ccccc1)c1ccccc1 | 5.74

Now let's try a different one.
Incoming: Quick one: pIC50 for "O[C@H](CNCc1ccccc1)[C@H](Cc1ccccc1)NCCC(c1ccccc1)c1ccccc1" ?
Outgoing: 5.81

---

# target-desc: Amyloid-beta precursor protein (Homo sapiens)
# test-name: Inhibition of HFIP-pretreated amyloid beta (1 to 42) (unknown origin) aggregation at 10 uM after 36 to 48 hrs by thioflavin-T fluorescence assay relative to control
# experimental-parameters: time 36-48 hrs
observation-type: inhibition (%)
One number for each entry, in %.

• C[C@H](NC[C@@H](O)[C@H](Cc1ccccc1)NCC(c1ccccc1)c1ccccc1)c1ccccc1 = 34.7
• O=C(CC(c1ccccc1)c1ccccc1)N[C@@H](Cc1ccccc1)[C@H](O)CNCC(F)(F)F = 20.5
• CC(C)(NC[C@@H](O)[C@H](Cc1ccccc1)NCCC(c1ccccc1)c1ccccc1)c1ccccc1 = 34.7
• CC(C)(C)c1ccc(CNCC(O)[C@H](Cc2ccccc2)NC(=O)CC(c2ccccc2)c2ccccc2)cc1 (single isomer, unassigned) = 20.5
• CC(C)(NC[C@@H](O)[C@H](Cc1ccccc1)NC(=O)C(c1ccccc1)c1ccccc1)c1ccccc1 = 20.5
• COc1cccc(CNC[C@@H](O)[C@H](Cc2ccccc2)NC(=O)CC(c2ccccc2)c2ccccc2)c1 = 20.5

Give me inhibition for each of these molecules, listed below.
1. CC(C)(C)c1ccc(CNC[C@H](O)[C@H](Cc2ccccc2)NC(=O)C(c2ccccc2)c2ccccc2)cc1
2. CC(C)(C)NC[C@H](O)[C@H](Cc1ccccc1)NCCC(c1ccccc1)c1ccccc1

Outgoing:
1. 20.5
2. 34.7

---

# target-desc: Cholinesterase (Homo sapiens, UniProt P06276)
# Sequence (P06276 whole entry): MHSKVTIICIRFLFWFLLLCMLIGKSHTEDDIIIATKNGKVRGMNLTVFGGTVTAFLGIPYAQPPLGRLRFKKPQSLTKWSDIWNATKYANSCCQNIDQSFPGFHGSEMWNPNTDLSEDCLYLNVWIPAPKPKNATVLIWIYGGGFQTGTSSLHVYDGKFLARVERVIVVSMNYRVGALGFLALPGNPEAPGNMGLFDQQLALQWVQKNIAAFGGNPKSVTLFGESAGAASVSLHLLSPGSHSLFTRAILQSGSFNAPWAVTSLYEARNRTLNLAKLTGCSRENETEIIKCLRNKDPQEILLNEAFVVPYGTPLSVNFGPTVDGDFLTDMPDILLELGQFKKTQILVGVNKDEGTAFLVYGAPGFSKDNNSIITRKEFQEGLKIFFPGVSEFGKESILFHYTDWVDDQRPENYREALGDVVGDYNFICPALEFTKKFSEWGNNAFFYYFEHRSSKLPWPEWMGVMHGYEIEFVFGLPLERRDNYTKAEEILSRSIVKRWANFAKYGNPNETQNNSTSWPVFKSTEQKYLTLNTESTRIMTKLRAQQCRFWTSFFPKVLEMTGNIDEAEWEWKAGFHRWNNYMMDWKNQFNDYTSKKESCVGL
# test-name: Inhibition of human BuchE at 1 uM using butyrylthiocholine as substrate preincubated for 5 mins followed by substrate addition and measured after 5 mins by Ellman's method relative to control
# experimental-parameters: time 10.0 min
inhibition of 40% or higher: true. Under 40%: false.

# example entries with known answers
• O[C@H](CNCc1ccccc1)[C@H](Cc1ccccc1)NCCC(c1ccccc1)c1ccccc1 = true
• COc1cccc(CNC[C@@H](O)[C@H](Cc2ccccc2)NC(=O)C(c2ccccc2)c2ccccc2)c1 = true
• CC(C)(C)NC[C@H](O)[C@H](Cc1ccccc1)NC(=O)C(c1ccccc1)c1ccccc1 = false

Incoming: Reported inhibition reaches at least 40% for "CC(C)(C)NC[C@H](O)[C@H](Cc1ccccc1)NCCC(c1ccccc1)c1ccccc1" ?
Outgoing: true

Incoming: Reported inhibition reaches at least 40% for "O=C(CC(c1ccccc1)c1ccccc1)N[C@@H](Cc1ccccc1)[C@@H](O)CNCc1ccccc1" ?
Outgoing: true

Incoming: Reported inhibition reaches at least 40% for "CC(C)(C)CNC[C@@H](O)[C@H](Cc1ccccc1)NC(=O)CC(c1ccccc1)c1ccccc1" ?
Outgoing: true

Incoming: Reported inhibition reaches at least 40% for "CC(C)(NC[C@@H](O)[C@H](Cc1ccccc1)NC(=O)CC(c1ccccc1)c1ccccc1)c1ccccc1" ?
Outgoing: false
